Listing of recorded PBM binding z-score by entry.
system: THRa:RXRa (NR concentration 90 nM, RXRa partner concentration 90 nM); assay: PBM binding z-score (relative to random genomic background probes); higher = stronger binding; sequences stand for … in GC…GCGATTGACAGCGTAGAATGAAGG
recordedMetric: PBM binding z-score

residueCodes	recordedMetric	quantitativeResult
AGAAGGAGGTTATTAAGATCAGGGAATTGCGGTC	PBM binding z-score	1.18
CGTGAAAGTTCAACTAAGGTAACGTAAAGCACGC	PBM binding z-score	5.32
ACTATTAGTTGACTTATGGCAACCGATACGACGC	PBM binding z-score	0.347
ATCGAAAGGTCGAGGTGAGCATAGAGAAAGGGAA	PBM binding z-score	2.98
ATCGAAAGGTCGTGAGGTGAGTATTCAGAAAGGC	PBM binding z-score	3.48
AGAATGAGGTTACCAAAGATCAGGCAAACGCTTG	PBM binding z-score	2.84
CCTCGGAGGACAACGGGAGGTCAGAGCTGCCAGA	PBM binding z-score	3.04
GCGACTGGGGCATAAGCAGGTTACCATAACTTAA	PBM binding z-score	0.914
ATATGTAGGTTAGCTGGGGGCATTCAGACTAGGC	PBM binding z-score	4.62
TATACACGGTCAAAGGCCAGAGTACGAATGTCGA	PBM binding z-score	0.581
GCTATAAGTTGAAAGGGCAACCGAATGATTCTCG	PBM binding z-score	1.16
TCTTGTAGTTCAATAGAGGTTAAGAAAGTGCGCT	PBM binding z-score	3.61
ATCGAAAGGTCGAAGGTGAGTAAACCCACCCGAA	PBM binding z-score	2.15
ACAGACAGGTGATGGAGGTAACTCAGGCTATCAT	PBM binding z-score	1.05
ATATGAAGGTTAAGGGTCATTCAGGTTGGTTCGC	PBM binding z-score	3.95
CGAACTAGGTCTTCCAGGACAGTGAATACATTGA	PBM binding z-score	1.71
TCTGCTAGGTCAGTTGGTCAGATAACGAGCTGCC	PBM binding z-score	1.38
TAGCCTGGGTCAGATCGGGCCAGTATACGCTATA	PBM binding z-score	4.11
CAAACTAGGTCAAAGGGCAAAGTCGAGCCAACCA	PBM binding z-score	3.56
CCTACTGTGCCAAAAAGGTCATTGATGCCGATAA	PBM binding z-score	3.26
CCGACTTGGGCAAGGTTACCATAACGCACAGCCA	PBM binding z-score	1.17
CCTACTGGGCCAAAAAGGTTATTGATGCCGATAA	PBM binding z-score	0.617
CATACAGGGTCAGCTAGGCCAGATTAGGGACGGC	PBM binding z-score	3.18
TAGCCTAGGTCATTCAGGGTCCAGTATAGAAAGC	PBM binding z-score	4.2
ACTTACGGTTCAACGAGGTTATAGCACGCGTATA	PBM binding z-score	3.06
AATACAGGGTCAATAGGCCAGAGTAGGTACGAAT	PBM binding z-score	3.03

###

system: PPARa:RXRa (NR concentration 270 nM, RXRa partner concentration 90 nM); assay: PBM binding z-score (relative to random genomic background probes); higher = stronger binding; sequences stand for … in GC…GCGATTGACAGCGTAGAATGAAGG
Classify as follows. Reported PBM binding z-score greater than or equal to 1: Y. Reported PBM binding z-score below: N.

residueCodes	classAssignment
GGAACGAGGGCATTCGAGTTGCTAGCATGGCGAT	N
CGTACTAGGTCATTGACAGGACAGTGAATAGTAA	Y
CTACCAAGGTGAACAAGGTTGTTGATTACTATTC	Y
TTACTAAGGTGAGCTGAGGTCGTTGATCCAACTC	Y
ATACCAAGGTGATCGTGAGGTCGTTGACACTAAC	Y
CCGCCTGGGGCAAAGGTTACCATACTCAGTACGA	Y
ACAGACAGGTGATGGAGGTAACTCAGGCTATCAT	N
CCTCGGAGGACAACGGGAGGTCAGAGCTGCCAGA	Y
CGTCCAAGGTCAAGGTCAGTGAGAGAGACTCGAA	Y
CCTAGTTTGTCAGGAGGTCACACACCGGATATGA	Y
GATACAGGGTCAGCGAGAGGCCAGAGTATGGAAA	Y
AAGACAGGGTCATCGTAGGCCAGAGTACGCACAG	Y
CCAACTGGGCCAAGGTCATTGATCAGTCAAAGCA	Y
TTACCAAGGTGAGCTGAAGTCGTTGATCCAACTC	N
CCTACTGGGCCATTCACAGGTCATTGATCATATG	Y
GCATATAGGTAATACACGGTGAAAGTCCGATTGT	N
GCCATTAGTTGAAAGGGCAACCGAATGATTCTCG	Y
ACAGACAGGTGATGAGGGTAACTCAGGCTATCAT	N
TCTTGTAGATCAATAGAGGTTAAGGAAGTGCGCT	Y
CCAGACAGGTAAGAAGGTAACTCAGCCTCGATTA	N
TCTGCTAGGTCAACGATGGTCTGCTAATCTGCTA	Y
AGCGAAAGGTCGACGAGGTGAGTATACACCGTTT	Y
AGTCAAAGTGCAGGACGAGGTAACGTAAAGCACG	N
ACTAGTTGGTCAGCTGAGTTCACACACAATTCGG	Y
AGAATAAGGTTACCAAAGATCAGGGAAACGCTTG	Y
ACAGACAAGTGATGAAGGTAACTCAGGCTATCAT	N
